# Tested on: SF-268 CNS
# testProtocol: NCI tumour cell line growth inhibition, 48 h
I'd be grateful if you could share measured TGI for these entries.

Req: Which TGI value belongs to CCCCC(C(=O)CCC(=O)Nc1ccc(Cl)c(Cl)c1)C(=O)C(C)C (configuration not stated) ?
Resp: > 100 µM

Req: Here is the next compound: `O=[N+]([O-])c1ccc(Oc2c(Cl)cc(S(=O)(=O)/N=C(\NO)Nc3ccc(Cl)cc3)cc2Cl)c(Cl)c1`
Resp: 29.6 µM

Req: Moving on to C/C=C1\CC2C(=O)CCC2C2c3ccccc3OC12 (configuration not stated)
Resp: > 100 µM

Req: Please give the result for `CCOC(=O)c1cc2c3c(c(C(C)=O)c(O)c2[nH]1)N(C(C)=O)CC3` too.
Resp: > 100 µM

Req: Follow-up entry: `OCCCNc1ccnc2cc(Cl)ccc12`
Resp: > 100 µM

Req: Now the same for `CCOC(=O)CCSc1nc2ccc(I)cc2c(=O)n1Cc1ccccc1`
Resp: > 91.2 µM

Req: Next: O=C(c1nc2ccccc2[nH]c1=O)C(O)c1ccco1 (configuration not stated)
Resp: > 100 µM

Req: Can you handle O=C(OC1CCC2OOC1O2)c1ccc([N+](=O)[O-])cc1 (configuration not stated) next?
Resp: > 100 µM

Req: Param item: `Nc1nc(N)c(-c2ccccc2)c(C(=O)Nc2ccccc2)n1`
Resp: > 100 µM

Req: Now try `COc1cc(C(=O)N2CCN(c3ccccc3)CC2)c2ccccc2n1` .
Resp: > 100 µM

Req: What do you have for CN1CCC2(CC1)NC(=O)c1c(c3ccc(Cl)c(Cl)c3n1C)C2C#N (configuration not stated) ?
Resp: 15.2 µM

Req: Same for CC1(Br)CC2OC3(Br)C=CC(C)(O)C2(CC1=O)C3(C)C (configuration not stated)
Resp: > 100 µM

Req: Follow-up entry: CC(=O)OCC1OC(n2c3c(cc(C#N)c2=S)CCC3)C(OC(C)=O)C(OC(C)=O)C1OC(C)=O (configuration not stated)
Resp: > 100 µM

Req: Do the same for `N#Cc1ccc(CSC2=C(c3ccc(Cl)cc3)S/C(=C3\SC(SCc4ccc(C#N)cc4)=C(c4ccc(Cl)cc4)S3)S2)cc1` please
Resp: > 100 µM

Req: Then `Clc1ccc(CCn2cncn2)cc1` ?
Resp: > 100 µM

Req: Next compound up: `COc1cccc(/C=N/NC(=O)c2ccccc2N2CCCC2)c1O`
Resp: > 100 µM

Req: Likewise for `Cc1cc(Nc2ncc3c(n2)N(C)C(=O)N(c2cc(NC(=O)c4cccc(C(F)(F)F)c4)ccc2C)C3)n(C)n1` ?
Resp: > 100 µM

Req: Same question for O=C(Nc1cccc(C(F)(F)F)c1)C(=O)C1NC(=S)NC1=O (configuration not stated) please.
Resp: > 100 µM

Req: Please give the result for `Cn1ccc(C(=O)NCCN(CCNC(=O)c2ccn(C)c(=O)c2O)CCNC(=O)c2ccn(C)c(=O)c2O)c(O)c1=O` too.
Resp: > 100 µM

Req: // same read-out, input: `CCCCCCCCCCCC(=O)N1CCN(C(C)=O)CC1`
Resp: > 100 µM

Req: Also `COc1ccc(Nc2cc(C)nc(NCc3ccccc3)n2)cc1` , if possible.
Resp: 36.3 µM

Req: Next compound up: C#C/C=C\CCCCCCCCCCCCCC/C=C\CCCCC#CC(O)C#CCCCC/C=C\CCCCCC/C=C/C(O)C#C (configuration not stated)
Resp: 44.4 µM

Req: Cool, now `O=C(O)CCc1nc2ccccc2[nH]1`
Resp: > 100 µM

Req: Would you mind doing `O=[N+]([O-])c1cc([N+](=O)[O-])c(/C=C/c2ccc(Cl)c(Cl)c2)cc1/C=C/c1ccc(Cl)c(Cl)c1` as well?
Resp: 75.8 µM

Req: Another compound to look at: `OC[P+](CO)(CO)C12CC3CC(CC(C3)C1)C2`
Resp: > 100 µM

Req: Thanks! And `CN(C)CCCNC(=O)CCNC(=O)c1cc(NC(=O)c2cc(NC(=O)c3cc(NC(=O)c4nccn4C)cn3C)cn2C)cn1C` ?
Resp: > 100 µM

Req: Could you do the same for `N=N/C(=C\c1c(O)[nH]c2ccccc12)c1ccccc1` , please?
Resp: > 100 µM
